# test_target: FUS-RRM (Homo sapiens, UniProt P35637 282-374)
# Sequence (P35637 282-374): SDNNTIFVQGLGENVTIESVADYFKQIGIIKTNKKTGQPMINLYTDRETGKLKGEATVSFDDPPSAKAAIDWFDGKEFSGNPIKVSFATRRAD
# assay_overview: ITC; sequential site N3; ITC: 10 mM HEPES pH 7.0, 20 mM Na2SO4 (+5 mM beta-mercaptoethanol for RRM-RanBP2 constructs), 298 K, 1 mM RNA into 100 uM protein. NMR: 20 mM Na phosphate pH 6.2, 25 mM NaCl, 5% D2O (RRM) or 25 mM Na2SO4, 5 mM beta-mercaptoethanol (TAF15-RRM-RanBP2), 298 K
# particulars: protein: recombinant; hairpin, 8 bp stem, 9 nt loop
endpoint_name: pKd
Entry type: numeric. Quantity: pKd, the -log10 of concentration in molar units.

Exercise: # get_value(readout='pKd', item= CGUAUCUUUAACUACUCAAGAUACG (structured_RNA) [SON stem-loop RNA] )
Key: 4.92
